Form field: Kd (one value per entry).
STUDY SYSTEM: CYP121 (Mycobacterium tuberculosis)
MEASURED PROPERTY: Kd (µM)

O=C1N[C@@H](Cc2ccc(O)c(O)c2)C(=O)N[C@H]1Cc1ccc(O)cc1 14.7
O=C1N[C@@H](Cc2c[nH]c3ccccc23)C(=O)N[C@H]1Cc1ccc(O)cc1 63.4
